Hi there, I'd appreciate the recorded IC50 at 48 h for every entry that follows.
- run-description: In vitro cytotoxicity, Neutral Red assay
- Type: cell-based
- details: human, BT-549 breast ductal carcinoma cells

Consider the reported IC50 at 48 h for these compounds:
>>> result("O=c1oc2ccccc2n1CCN1CCN(CCn2c(=O)oc3ccccc32)CC1")
"> 25 µg/mL"
>>> result("O=c1sc2ccccc2n1CCCN1CCN(CCn2c(=O)sc3ccccc32)CC1")
"> 25 µg/mL"
>>> result("O=c1oc2ccccc2n1CCCCCN1CCN(CCCCCn2c(=O)oc3ccccc32)CC1")
"> 25 µg/mL"
>>> result("O=c1oc2ccccc2n1CCCN1CCN(CCCn2c(=O)oc3ccccc32)CC1")
"> 25 µg/mL"
>>> result("O=c1sc2ccccc2n1CCCCN1CCN(CCCCn2c(=O)sc3ccccc32)CC1")
"> 25 µg/mL"
>>> result("O=c1sc2ccccc2n1CCCCN1CCN(CCn2c(=O)sc3ccccc32)CC1")
"> 25 µg/mL"
>>> result("O=c1sc2ccccc2n1CCN1CCN(CCn2c(=O)sc3ccccc32)CC1")
"> 25 µg/mL"
>>> result("O=c1sc2ccccc2n1CCCN1CCN(CCCn2c(=O)sc3ccccc32)CC1")
"> 25 µg/mL"

Look at each compound and report its IC50 at 48 h.
1. O=c1oc2ccccc2n1CCCCCN1CCN(CCCCn2c(=O)oc3ccccc32)CC1
2. O=c1oc2ccccc2n1CCCCCCN1CCN(CCCCn2c(=O)oc3ccccc32)CC1
3. c1ccc2sc(SCCCCN3CCN(CCCCSc4nc5ccccc5s4)CC3)nc2c1
4. O=c1oc2ccccc2n1CCCCCCN1CCN(CCCn2c(=O)oc3ccccc32)CC1

Marked response:
1. > 25 µg/mL
2. > 25 µg/mL
3. > 25 µg/mL
4. > 25 µg/mL

====

Hi there, I'd appreciate the recorded IC50 at 48 h for every entry that follows.
- run-description: In vitro cytotoxicity, Neutral Red assay
- Assay type: cell-based
- details: African green monkey, Vero cells (kidney fibroblasts)

>>> result("c1ccc2sc(SCCCCN3CCN(CCCCSc4nc5ccccc5s4)CC3)nc2c1")
"> 25 µg/mL"
>>> result("O=c1sc2ccccc2n1CCCCCN1CCN(CCCCn2c(=O)sc3ccccc32)CC1")
"> 25 µg/mL"

Look at each compound and report its IC50 at 48 h.
1. O=c1oc2ccccc2n1CCCCN1CCN(CCn2c(=O)oc3ccccc32)CC1
2. O=c1oc2ccccc2n1CCCCCCN1CCN(CCCCCCn2c(=O)oc3ccccc32)CC1
3. O=c1oc2ccccc2n1CCCN1CCN(CCCn2c(=O)oc3ccccc32)CC1
4. O=c1oc2ccccc2n1CCCCCCN1CCN(CCCCCn2c(=O)oc3ccccc32)CC1

Marked response:
["> 25 µg/mL", "> 25 µg/mL", "> 25 µg/mL", "> 25 µg/mL"]

====

- run-description: In vitro cytotoxicity, Neutral Red assay
- Format: cell-based
- details: human, SK-MEL malignant melanoma cells
measured-quantity: IC50 at 48 h

Consider the reported IC50 at 48 h for these compounds:
>>> result("O=c1sc2ccccc2n1CCCN1CCN(CCCn2c(=O)sc3ccccc32)CC1")
"> 25 µg/mL"
>>> result("O=c1sc2ccccc2n1CCCCN1CCN(CCCCn2c(=O)sc3ccccc32)CC1")
"> 25 µg/mL"
>>> result("O=c1oc2ccccc2n1CCCCCCN1CCN(CCCn2c(=O)oc3ccccc32)CC1")
"> 25 µg/mL"

Look at each compound and report its IC50 at 48 h.
1. O=c1sc2ccccc2n1CCCN1CCN(CCn2c(=O)sc3ccccc32)CC1
2. O=c1oc2ccccc2n1CCN1CCN(CCn2c(=O)oc3ccccc32)CC1
3. O=c1oc2ccccc2n1CCCCN1CCN(CCCCn2c(=O)oc3ccccc32)CC1
4. O=c1sc2ccccc2n1CCCCN1CCN(CCn2c(=O)sc3ccccc32)CC1
5. O=c1oc2ccccc2n1CCCN1CCN(CCn2c(=O)oc3ccccc32)CC1

Marked response:
["> 25 µg/mL", "> 25 µg/mL", "> 25 µg/mL", "> 25 µg/mL", "> 25 µg/mL"]

Exam item: May I ask what IC50 at 48 h has been recorded for `O=c1oc2ccccc2n1CCCCN1CCN(CCn2c(=O)oc3ccccc32)CC1` ?
Marked response: > 25 µg/mL
